- test protocol: chemical genetic growth profiling, strain panel (AID 1159580);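 note: tested at 20 µM; growth read once vehicle control cultures reached saturation at 30 °C; 1 = growth at the plate median or of vehicle wells; lower values mean less growth of the strain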
- setup conditions: S. cerevisiae deletion strains, growth OD, locus YDR069C, strain doa4, stronger effect = lower value
In all, about 5,500 compounds went through this assay and about 2,000 (36%) were called active. About 18% were inconclusive and are not listed. Some of the results follow.
Examples of molecules with documented normalized growth follow.
Hey, just send me the number, nothing else.

Illustrative cases are given below, each with its answer.
1) Nc1ccc(S(=O)(=O)c2ccc(N)cc2)cc1 ... 0.987
2) COC(=O)Nc1nc2ccc(Sc3ccccc3)cc2[nH]1 ... 0.984
3) OC(CCN1CCCCC1)(c1ccccc1)C1CC2C=CC1C2 (centres undefined) ... 1.02
4) NC(Cc1c[nH]c2ccccc12)C(=O)O (centres undefined) ... 1

// recorded normalized growth for OC(CCN1CCCC1)(c1ccccc1)C1CCCCC1 (centres undefined) : 0.986

Just so you know, measured normalized growth for COc1ccc2[nH]cc(CCN)c2c1 came out at 0.971

Item: CCC(C)C(NC)C(=O)O (centres undefined) | normalized growth: 1.02

Record COc1c(-c2coc3cc4c(cc3c2=O)CC(O)C(C)(C)O4)ccc2c1C=CC(C)(C)O2 (centres undefined) . Reported normalized growth: 1

Field normalized growth (entry CC(=O)/C=C\[C@@H]1[C@@]2(C)CCCC(C)(C)C2CC[C@@]1(C)O (some centres undefined) ) reads 0.973

====

- test protocol: chemical genetic growth profiling, strain panel (AID 1159580)
- setup conditions: S. cerevisiae deletion strains, growth OD, locus YCL011C, strain gbp2, stronger effect = lower value
Out of some 5,500 compounds screened, about 2,000 (36%) were called active. Another 18% or so got no clear call; they are omitted. The list shows a part of the results.
readout label: normalized growth

1) NCCC(=O)N[C@@H](Cc1cnc[nH]1)C(=O)O ... 1.01 (inactive)
2) CC(C)CC(N(C)C)C1(c2ccc(Cl)cc2)CCC1 (stereo not drawn) ... 0.999 (inactive)

Lab note: next compound to report on.
Recorded result, CC(=O)NC(C(=O)O)C(C)(C)SN=O (stereo not drawn) , normalized growth: 0.996 (inactive)

====

- test protocol: chemical genetic growth profiling, strain panel (AID 1159580)
- setup conditions: S. cerevisiae deletion strains, growth OD, locus YLR039C, strain RIC1
Hit rate of the full screen: of about 5,500 compounds, about 2,000 (36%) were called active. About 18% were inconclusive and are not listed. Cut-off read from the data, not from the text of the source: active = normalized growth mostly below about 0.91 (no sharp cut-off); inconclusive = no clear call, values can overlap the other calls; inactive = mostly above about 0.92. This is one part of the list.
Return exactly one item of 1 = active, -1 = inactive

1. O=C(CSCc1c(F)cccc1Cl)Nc1ccc(F)c(Cl)c1 ... 1
2. C#C[C@]1(O)CCC2C3CCC4=CC(=O)CC[C@@H]4C3CC[C@@]21CC (stereo partly specified) ... -1
3. C/C=C(/C)C(=O)OC1CCC2(C)C3CCC4C5(O)CC(O)C6(O)C(CN7CC(C)CCC7C6(C)O)C5(O)CC42OC13O (stereo unspecified) ... -1
4. CC(C)(Sc1cc(C(C)(C)C)c(O)c(C(C)(C)C)c1)Sc1cc(C(C)(C)C)c(O)c(C(C)(C)C)c1 ... -1
5. CNCc1ccccc1 ... -1
6. Cn1c(CSCC(=O)Nc2ccccc2)n[nH]c1=S ... -1
7. CCC(C)C(=O)O[C@H]1[C@H](O)C2C(CN3CC(C)CCC3[C@@]2(C)O)C2C[C@]34O[C@]5(O)C(OC(=O)C(C)(O)CC)CC[C@@]3(C)C5C(OC(C)=O)[C@@H](OC(C)=O)C4[C@@]21O (stereo partly specified) ... -1
8. N#CC(NCc1ccccc1)c1ccc(Cl)c(Cl)c1 (stereo unspecified) ... -1
9. Cc1cc(C2=CSC3=NCCN23)ccc1Cl ... -1
10. COc1cc(C(=O)O[C@H]2CC[C@@]3(C)[C@@H]4CC[C@H]5[C@]6(O)C[C@H](O)[C@@]7(O)[C@@H](CN8C[C@@H](C)CC[C@H]8[C@@]7(C)O)[C@]6(O)C[C@@]53O[C@]24O)cc(OC)c1OC ... -1

Just curious, what result did Nc1ccc(S(=O)(=O)c2ccc(N)cc2)cc1 get here? -1

Could you kindly confirm the outcome this assay logged for Cc1cc(O)ccc1Cl ? -1

How was CC(C)CC(N(C)C)C1(c2ccc(Cl)cc2)CCC1 (stereo unspecified) classified in this test? -1

Answer briefly: the call reported for N=C(N)c1ccc(OCCCCCOc2ccc(C(=N)N)cc2)cc1 in this assay. -1

Per the assay record, what outcome was assigned to Nc1ccc(-n2nc(C(F)(F)F)cc2C(F)(F)F)cc1 ? -1

Look up the recorded call for CC(C)(C)OC(=O)C(C)(C)S(=O)(=O)c1ccc(Cl)cc1 in this test. -1

====

- test protocol: chemical genetic growth profiling, strain panel (AID 1159580);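 note: tested at 20 µM; growth read once vehicle control cultures reached saturation at 30 °C; 1 = growth at the plate median or of vehicle wells; lower values mean less growth of the strain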
- setup conditions: S. cerevisiae deletion strains, growth OD, locus YDL017W, strain CDC7, stronger effect = lower value
The campaign covered roughly 5,500 compounds. About 2,000 (36%) were called active. Another 18% or so got no clear call; they are omitted. The list shows a part of the results.
readout label: normalized growth
Give the figure only, with no unit attached.

Worked set:
1. OC1CCN(c2cc(C(F)(F)F)nc3cc(Cl)cc(Cl)c23)CC1 ... 0.977
2. Cc1nc(-c2ccccn2)nc(N(C)Cc2ccccc2)c1Cl ... 0.962
3. Cc1ccc(S(=O)(=O)n2c(Sc3ccc([N+](=O)[O-])cc3[N+](=O)[O-])nc3cc(C)ccc32)cc1 ... 0.986
4. O=S(=O)(NC(=S)Nc1ccc(Cl)c(Cl)c1)c1ccccc1 ... 1.01
5. C=CCc1c(CCC)nc(-c2ccccn2)[nH]c1=O ... 0.931

# input for lookup
Lab note: CCCc1nc(-c2ccccn2)[nH]c(=O)c1CC1CC1 gave normalized growth of 0.956

====

- test protocol: chemical genetic growth profiling, strain panel (AID 1159580);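 note: tested at 20 µM; growth read once vehicle control cultures reached saturation at 30 °C; 1 = growth at the plate median or of vehicle wells; lower values mean less growth of the strain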
- setup conditions: S. cerevisiae deletion strains, growth OD, locus YJL095W, strain BCK1 (second series), stronger effect = lower value
The whole screen tested about 5,500 compounds, of which about 2,000 (36%) were called active. Another 18% or so got no clear call; they are omitted. This is one part of the list.
Parameter normalized growth: see the listing below.
Could you keep your reply to the number by itself?

1) CC(C)(C#N)O[C@@H]1O[C@H](CO)[C@@H](O)[C@H](O)[C@H]1O ... 1.01
2) C[C@@H]1CC[C@H]2[C@@H](C)C(=O)O[C@@H]3O[C@@]4(C)CC[C@@H]1[C@]32OO4 ... 0.798
3) Cc1cc(C(C)(C)C)c(O)c(C(C)(C)C)c1 ... 0.979
4) CC1(C)CC[C@]2(C(=O)O)CC[C@]3(C)C(=CCC4[C@@]5(C)CC[C@H](O)[C@@](C)(CO)C5CC[C@]43C)C2C1 (stereo partly drawn) ... 1.02
5) Cc1ccc(S(=O)(=O)NC(=O)NN2CC3CCCC3C2)cc1 (stereo not drawn) ... 0.973
6) CC(C)(Sc1cc(C(C)(C)C)c(O)c(C(C)(C)C)c1)Sc1cc(C(C)(C)C)c(O)c(C(C)(C)C)c1 ... 1
7) Nc1ccc(S(=O)(=O)Nc2cnc3ccccc3n2)cc1 ... 1.02

Shift focus to the following entry.
Measured normalized growth, C[C@@H]1OC(O[C@H]2C(O[C@H]3CC[C@@]4(C)C(CC[C@]5(C)C4CC=C4C6CC(C)(C)CC[C@]6(C(=O)O)CC[C@]45C)[C@]3(C)CO)OC[C@H](O)[C@@H]2O)[C@H](O)[C@H](O)[C@H]1O (stereo partly drawn) : 0.0567

====

The following compounds are listed with their measured normalized growth values.
- test protocol: chemical genetic growth profiling, strain panel (AID 1159580);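 note: tested at 20 µM; growth read once vehicle control cultures reached saturation at 30 °C; 1 = growth at the plate median or of vehicle wells; lower values mean less growth of the strain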
- setup conditions: S. cerevisiae deletion strains, growth OD, locus YGR052W, strain FMP48, stronger effect = lower value
In all, about 5,500 compounds went through this assay and about 2,000 (36%) were called active. Another 18% or so got no clear call; they are omitted. This is one part of the list.

Take a look at these entries with their results.
1) CC(C)(C)C(=O)N(Cc1cccnc1)Cc1ccc(Cl)cc1Cl ... 1.01 (inactive)
2) O=C(NCCNc1ncc(C(F)(F)F)cc1Cl)C(F)(F)Sc1ccccc1 ... 0.978 (inactive)
3) Clc1ccc2c(c1)c1ccccc1n2CN1CCOCC1 ... 0.603 (inactive)

# compound O=C(NCCc1ccncc1)c1ccc(Cl)c(Cl)c1 ; its normalized growth = 0.985 (inactive)

normalized growth in this record for O=C(NCC1COc2ccccc2O1)c1ccc(Cl)cc1 (centres undefined) : 0.899 (inactive)

According to the records, this compound COc1cccc(NC(=S)NC2CC(C)CC(C)(C)C2)c1 (centres undefined) displays normalized growth of 1.02 (inactive)

Data point: Cc1ccc(C)c(CSc2nc(C3CCCCC3)c(C#N)c(=O)[nH]2)c1 ; normalized growth = 1.11 (inactive)

Reported normalized growth of Fc1ccc(NC(=S)N2CCCN(Cc3ccc(Cl)cc3Cl)CC2)cc1 : 1.09 (inactive)

Field normalized growth (entry Fc1cccc(Cl)c1CSc1n[nH]c(-c2cc(C(F)(F)F)cc(C(F)(F)F)c2)n1 ) reads 0.925 (inactive)

// field: normalized growth; key: S=C(NCc1ccccc1)Nc1ccc(Cl)c(Cl)c1 ; value = 0.878 (inactive)

Noted for O=C(Nc1ccc(Cl)cc1)SCc1c(Cl)cccc1Cl : its normalized growth reads 0.765 (inactive)

Reported normalized growth of CSc1n[nH]c(-c2cc(C(F)(F)F)cc(C(F)(F)F)c2)n1 : 0.92 (inactive)

normalized growth for CCCc1nc(-c2ccccn2)[nH]c(=O)c1CC1CC1 is 1.01 (inactive)

Note to self: normalized growth recorded for O=C(c1ccc(Cl)cc1)N(Cc1ccccc1)Cc1cccnc1 was 0.869 (inactive)
